Target: Estrogen receptor (Homo sapiens) + Estrogen receptor beta (Homo sapiens) (UniProt P03372+Q92731)
Sequence (P03372 whole entry, looked up): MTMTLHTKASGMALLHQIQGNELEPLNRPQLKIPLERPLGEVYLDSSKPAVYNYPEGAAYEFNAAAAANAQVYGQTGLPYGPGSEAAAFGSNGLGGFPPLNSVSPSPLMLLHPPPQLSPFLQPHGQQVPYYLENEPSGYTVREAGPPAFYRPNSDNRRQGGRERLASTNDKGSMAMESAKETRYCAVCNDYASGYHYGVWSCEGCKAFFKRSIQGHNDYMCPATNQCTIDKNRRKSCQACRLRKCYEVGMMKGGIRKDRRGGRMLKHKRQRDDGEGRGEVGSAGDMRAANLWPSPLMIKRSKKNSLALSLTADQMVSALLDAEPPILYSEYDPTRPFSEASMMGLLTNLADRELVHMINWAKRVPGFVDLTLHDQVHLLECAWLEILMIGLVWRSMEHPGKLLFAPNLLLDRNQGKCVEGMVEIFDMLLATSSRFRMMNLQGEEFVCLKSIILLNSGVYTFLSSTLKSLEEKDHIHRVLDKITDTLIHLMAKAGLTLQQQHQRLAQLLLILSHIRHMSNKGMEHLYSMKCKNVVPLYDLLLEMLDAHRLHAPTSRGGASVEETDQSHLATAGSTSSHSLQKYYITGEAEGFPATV
Sequence (Q92731 whole entry, looked up): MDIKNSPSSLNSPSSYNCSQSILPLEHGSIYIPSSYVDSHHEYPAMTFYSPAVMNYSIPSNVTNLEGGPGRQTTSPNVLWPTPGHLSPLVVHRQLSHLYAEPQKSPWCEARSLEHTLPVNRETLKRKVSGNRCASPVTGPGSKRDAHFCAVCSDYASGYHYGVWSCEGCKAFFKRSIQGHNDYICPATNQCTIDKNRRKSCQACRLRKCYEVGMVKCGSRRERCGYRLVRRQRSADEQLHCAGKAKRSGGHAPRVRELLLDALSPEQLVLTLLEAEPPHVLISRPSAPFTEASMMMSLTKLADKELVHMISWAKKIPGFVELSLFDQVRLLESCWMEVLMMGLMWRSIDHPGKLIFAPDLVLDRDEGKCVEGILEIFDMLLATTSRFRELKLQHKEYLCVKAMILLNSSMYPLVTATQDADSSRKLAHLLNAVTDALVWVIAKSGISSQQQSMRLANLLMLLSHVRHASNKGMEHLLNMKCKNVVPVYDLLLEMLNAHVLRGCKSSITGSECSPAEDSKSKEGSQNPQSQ
Assay: OT_ER_ERaERb_0480: Odyssey Thera (OT) 8-hour HEK293T Protein-Complementation Assay for Estrogen Receptor-alpha/-beta Heterodimer (AID 2283352)
Inconclusive results are not listed. Activity calls are given as the source filed them. The calls were made as follows: active = hit-call score of the fitted dose curve at least 0.9, where 1 is the maximum; inconclusive = response in the unintended direction; inactive = score below 0.9.
Outcome (select one): 1 = active, -1 = inactive

Problem: Check the results log: what was the call for Clc1nc(Cl)nc(Nc2ccccc2Cl)n1 ?
Solution: -1

Problem: Check the results log: what was the call for CNC(=O)N(C)c1nnc(C(C)(C)C)s1 ?
Solution: -1

Problem: Check the results log: what was the call for CC1(C)CON(Cc2ccccc2Cl)C1=O ?
Solution: -1

Problem: Check the results log: what was the call for CC1(C)C(C(=O)OC(C#N)c2cccc(Oc3ccccc3)c2)C1(C)C (configuration not stated) ?
Solution: -1

Problem: Check the results log: what was the call for O=C1C2CC=CCC2C(=O)N1SC(Cl)(Cl)Cl (configuration not stated) ?
Solution: -1

Problem: Check the results log: what was the call for CC(C)N1C(=O)N(c2ccccc2)CSC1=NC(C)(C)C ?
Solution: -1

Problem: Check the results log: what was the call for COC(=O)NC(=S)Nc1ccccc1NC(=S)NC(=O)OC ?
Solution: -1

Problem: Check the results log: what was the call for COP(=O)(OC)O/C(C)=C/C(=O)N(C)C ?
Solution: -1

Problem: Check the results log: what was the call for CCOc1nc(F)cc2nc(S(=O)(=O)Nc3c(Cl)cccc3Cl)nn12 ?
Solution: -1

Problem: Check the results log: what was the call for CC1(C)CCC(=Cc2ccc(Cl)cc2)C1(O)Cn1cncn1 (configuration not stated) ?
Solution: -1

Problem: Check the results log: what was the call for CCOC(=O)C(C)OC(=O)c1cc(Oc2ccc(C(F)(F)F)cc2Cl)ccc1[N+](=O)[O-] (configuration not stated) ?
Solution: -1

Problem: Check the results log: what was the call for COC(=O)NS(=O)(=O)c1ccc(N)cc1 ?
Solution: -1

Problem: Check the results log: what was the call for COCC(=O)N(c1c(C)cccc1C)C(C)C(=O)OC (configuration not stated) ?
Solution: -1

Problem: Check the results log: what was the call for Clc1cccc(C(Cl)(Cl)Cl)n1 ?
Solution: -1

Problem: Check the results log: what was the call for COc1cc(OC)nc(NC(=O)NS(=O)(=O)c2ncccc2OCC(F)(F)F)n1 ?
Solution: -1

Problem: Check the results log: what was the call for CN/C(=N\[N+](=O)[O-])NCc1cnc(Cl)s1 ?
Solution: -1

Problem: Check the results log: what was the call for C=CCOC(=O)C(C)(C)OC(=O)c1cc(-n2c(=O)cc(C(F)(F)F)n(C)c2=O)ccc1Cl ?
Solution: -1

Problem: Check the results log: what was the call for COC(=O)N(C(=O)N1CO[C@@]2(C(=O)OC)Cc3cc(Cl)ccc3C2=N1)c1ccc(OC(F)(F)F)cc1 ?
Solution: -1

Problem: Check the results log: what was the call for OC(c1ccc(Cl)cc1)(c1ccc(Cl)cc1)C(Cl)(Cl)Cl ?
Solution: 1

Problem: Check the results log: what was the call for COCc1cnc(C2=NC(C)(C(C)C)C(=O)N2)c(C(=O)O)c1 (configuration not stated) ?
Solution: -1

Problem: Check the results log: what was the call for O=C(O)c1c(Cl)ccc2cc(Cl)cnc12 ?
Solution: -1

Problem: Check the results log: what was the call for COCC(C)N(C(=O)CCl)c1c(C)csc1C (configuration not stated) ?
Solution: -1

Problem: Check the results log: what was the call for COP(=S)(OC)Oc1ccc([N+](=O)[O-])c(C)c1 ?
Solution: -1

Problem: Check the results log: what was the call for N#Cc1c(Cl)cccc1Cl ?
Solution: -1

Problem: Check the results log: what was the call for Nc1c(Cl)c(Cl)nc(C(=O)O)c1Cl ?
Solution: -1

Problem: Check the results log: what was the call for Cn1c(-c2ccccc2)cc(-c2ccccc2)[n+]1C ?
Solution: -1

Problem: Check the results log: what was the call for Cc1nc(N(C)C)nc(OC(=O)N(C)C)c1C ?
Solution: -1

Problem: Check the results log: what was the call for CC(C)Oc1cccc(NC(=O)c2ccccc2C(F)(F)F)c1 ?
Solution: -1

Problem: Check the results log: what was the call for CCCCC(O)(Cn1cncn1)c1ccc(Cl)cc1Cl (configuration not stated) ?
Solution: -1

Problem: Check the results log: what was the call for CS(=O)(=O)c1cc(C(F)(F)F)ccc1C(=O)c1cnoc1C1CC1 ?
Solution: -1

Problem: Check the results log: what was the call for CSC(=O)c1c(C(F)F)nc(C(F)(F)F)c(C(=O)SC)c1CC(C)C ?
Solution: 1

Problem: Check the results log: what was the call for CCOc1nc(C(Cl)(Cl)Cl)ns1 ?
Solution: -1

Problem: Check the results log: what was the call for CC1(C)C(C=C(Cl)Cl)C1C(=O)OC(C#N)c1cccc(Oc2ccccc2)c1 (configuration not stated) ?
Solution: -1

Problem: Check the results log: what was the call for CC(C)Nc1nc(Cl)nc(NC(C)C)n1 ?
Solution: -1

Problem: Check the results log: what was the call for CS(=O)(=O)c1ccc(C(=O)C2C(=O)CCCC2=O)c([N+](=O)[O-])c1 ?
Solution: -1

Problem: Check the results log: what was the call for COc1ccc(-c2ccccc2)cc1NNC(=O)OC(C)C ?
Solution: -1

Problem: Check the results log: what was the call for COP(=S)(OC)SCn1nnc2ccccc2c1=O ?
Solution: -1
